Origin of the recorded values: PubChem BioAssay AID1645864

assayed.system: Ubiquitin carboxyl-terminal hydrolase 17-like protein 5 (Homo sapiens)
test.name: ubiquitin-specific protease 17 DUB inhibitors, concentration-effect assay, cell-free, verification of initial screening actives (AID 1645864)
run.conditions: purified USP17, ubiquitin-rhodamine cleavage fluorescence, 3 h
The source made the active and inactive calls.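 Rule for the calls: active = maximal inhibition of USP17 at or above 30% in the confirmation dose-response, a value not among the printed readouts; inactive = the rest.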
Output constraint: value belongs to active, inactive

Illustrative cases are given below, each with its answer.
                              sample_smiles  assigned_class
0  O=C(CCc1ccc(S(=O)(=O)N2CCOCC2)cc1)Nc1ccc2c(c1)OCCO2        inactive
1  Cc1ccc(OC(=O)c2cn(-c3ccccc3)nc2-c2cccnc2)cc1        inactive

Let us examine a further case.
Challenge: Recorded call for CCN(C(=O)c1cc2c(Cl)nc3ccccc3c2s1)c1ccccc1F ?
Response given: active
